# system tested: Solute carrier family 2, facilitated glucose transporter member 1 (Homo sapiens) (UniProt P11166)
# Sequence (P11166 whole entry): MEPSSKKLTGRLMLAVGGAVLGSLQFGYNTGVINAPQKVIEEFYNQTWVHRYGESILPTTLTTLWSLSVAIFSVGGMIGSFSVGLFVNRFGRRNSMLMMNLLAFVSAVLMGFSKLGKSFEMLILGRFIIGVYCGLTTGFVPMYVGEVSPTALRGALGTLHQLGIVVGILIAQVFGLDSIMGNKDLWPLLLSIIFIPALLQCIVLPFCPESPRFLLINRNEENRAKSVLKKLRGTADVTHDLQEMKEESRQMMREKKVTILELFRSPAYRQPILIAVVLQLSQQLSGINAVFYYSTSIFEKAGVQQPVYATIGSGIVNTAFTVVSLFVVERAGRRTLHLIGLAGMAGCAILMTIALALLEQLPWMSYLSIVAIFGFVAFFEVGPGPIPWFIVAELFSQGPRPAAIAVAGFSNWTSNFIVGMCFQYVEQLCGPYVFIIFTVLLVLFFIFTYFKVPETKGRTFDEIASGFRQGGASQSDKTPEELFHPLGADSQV
# assay procedure: ST_JUDE_LEISH: Cytotoxicity at 2uM final concentration against transgenic Leishmania Mexicana promastigotes LmGLUT1 that are glucose transport deficient and complemented with the human glucose transporter GLUT1. Activity is measured by DNA content using SYBR green in vitro
# Assay type: functional
Documented inhibition across a set of compounds
Value expressed in %; do not type the unit.

Nc1nnc(-c2ccc(Cl)c(Br)c2)c(N)n1 | -0.74
CCN(CC)CCN(Cc1ccc(-c2ccc(C(F)(F)F)cc2)cc1)C(=O)Cn1c(CCc2cccc(F)c2F)nc(=O)c2ccc(C)cc21 | 0.88
COc1cccc(CC(=O)N2CCC(n3c(C)nc4ccc(C)cc43)CC2)c1 | 1.58

Data request: What measured inhibition goes with CC(C)(C)c1ccc(CN2CCC(CNC(=O)c3cc(-c4ccccc4Cl)cs3)C2)cc1 (centres undefined) ?
Data returned: 0.49
